Quick reference: kon of the listed items.
experimental target: Human SARS-CoV-2_Wuhan S (SmT1) (SARS-CoV-2 (Wuhan), UniProt P0DTC2 14-1208)
assay notes: SPR, VHH over immobilised S
Give your result in M⁻¹ s⁻¹ as a bare value.

Use the examples below as a reference point.
NRCoV2-05 VHH (VHH) VHH: EVKLVQSGGGLVQPGGSLRLSCAASGFIFSNYAMNWVRQAPGKGLEWVSGINSGGGDTRYADSVKGRFTVSRDNAKNTLYLQMNSLKPEDTGVYYCSKGPVSSYYGSGYDYRGQGTQVTVSS	2.76e+06
NRCoV2-14 VHH (VHH) VHH: EVQLVSSGGGLVQAGGSLRLSCEASGTTFSHYAVGWYRQAPGKQREWVASISVFGSTTYGGSVAGRFTISRDNDKNTVDLQMNSLKPEDTAVYYCHAVNADIGGDYWGQGTQVTVSS	389000
NRCoV2-20 VHH (VHH) VHH: EVQLQQSGGGLVQPGGSLRLSCAASGRTFSNYVVGWFRQAPQAPGKDHEFVAVISGSDTETYYADSVKGRFTISRDNAKNTVYLQMNSLKPEDTAVYYCAADRGMSYYYTRATEYYYWGQGTQVTVSS	2.64e+06

Turning to the following binder.
Q. Reported kon, binder NRCoV2-SR03 VHH (VHH) VHH: AVQLVDSGGGLVQAGGSLRLSCAASGSIFSNNHMGWYRQAPGKQRELVAAISSGGKTNYADFAKGRFTISRDNAKNMVYLQMNSLKPEDTAVYYCNRGGWEYRSSYYIMGPHWGQGTQVTVSS : ____
A. 670000
